- target of assay: T1, monkey TIM-3 protein with hFc tag (cTIM-3-hFc protein) (monkey; human)
- T1 construct: Made in HEK293 cells; also called monkey TIM-3 extracellular domain protein; not shown: human IgG Fc fragment (hFc) of the pCpC vector
- T1 chain: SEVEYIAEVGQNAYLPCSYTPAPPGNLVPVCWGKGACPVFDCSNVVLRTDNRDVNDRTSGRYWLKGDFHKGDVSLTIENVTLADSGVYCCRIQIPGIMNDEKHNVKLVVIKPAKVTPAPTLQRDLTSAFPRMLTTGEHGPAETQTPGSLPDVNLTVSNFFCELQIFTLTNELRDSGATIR
- assay overview: ELISA, coated cTIM-3-hFc; antibody 0.0001 nM
# OD450 per entry
Could you respond with only the numeric value?

57F4E5 (TIM-3 antibody purified from hybridoma, chimeric antibody of Example 2) (antibody, V domains shown, From hybridoma of Harbour H2L2 transgenic mice: human variable regions, rat constant regions) VH: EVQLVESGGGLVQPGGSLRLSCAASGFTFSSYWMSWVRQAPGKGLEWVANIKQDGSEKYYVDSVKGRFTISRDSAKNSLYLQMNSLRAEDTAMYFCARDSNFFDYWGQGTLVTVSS VL: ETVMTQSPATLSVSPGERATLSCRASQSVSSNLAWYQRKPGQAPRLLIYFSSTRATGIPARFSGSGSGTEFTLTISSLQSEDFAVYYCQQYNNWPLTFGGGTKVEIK	0.58
34B6D8 (TIM-3 antibody purified from hybridoma, chimeric antibody of Example 2) (antibody, V domains shown, From hybridoma of Harbour H2L2 transgenic mice: human variable regions, rat constant regions) VH: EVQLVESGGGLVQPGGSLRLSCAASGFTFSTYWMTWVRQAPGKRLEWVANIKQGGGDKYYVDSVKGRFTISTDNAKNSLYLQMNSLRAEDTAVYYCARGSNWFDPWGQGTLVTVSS VL: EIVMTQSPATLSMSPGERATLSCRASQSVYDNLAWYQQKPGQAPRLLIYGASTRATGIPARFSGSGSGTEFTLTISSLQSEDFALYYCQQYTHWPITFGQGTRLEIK	0.57
7A4F10 (TIM-3 antibody purified from hybridoma, chimeric antibody of Example 2) (antibody, V domains shown, From hybridoma of Harbour H2L2 transgenic mice: human variable regions, rat constant regions) VH: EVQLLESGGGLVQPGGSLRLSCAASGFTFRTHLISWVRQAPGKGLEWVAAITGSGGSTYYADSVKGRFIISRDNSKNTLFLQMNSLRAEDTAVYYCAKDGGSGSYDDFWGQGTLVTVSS VL: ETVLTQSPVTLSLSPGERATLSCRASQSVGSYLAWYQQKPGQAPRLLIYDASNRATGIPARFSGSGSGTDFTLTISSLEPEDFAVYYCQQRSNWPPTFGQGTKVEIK	0.54

Please find the next binder below.
Q: What value of OD450 has been recorded for this entry: 134H3G6 (TIM-3 antibody purified from hybridoma, chimeric antibody of Example 2) (antibody, V domains shown, From hybridoma of Harbour H2L2 transgenic mice: human variable regions, rat constant regions) VH: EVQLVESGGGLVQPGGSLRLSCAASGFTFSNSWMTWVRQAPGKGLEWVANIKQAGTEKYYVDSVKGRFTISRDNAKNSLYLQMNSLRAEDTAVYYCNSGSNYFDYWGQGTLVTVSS VL: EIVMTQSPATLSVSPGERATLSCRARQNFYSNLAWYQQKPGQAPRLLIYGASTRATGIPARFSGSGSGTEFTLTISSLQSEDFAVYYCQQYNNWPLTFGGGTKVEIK
A: 0.54
